Give Ratio (-BP/+BP), DF-1,000,000 for every item shown.
- systemTested: T1, interleukin 18 binding protein (IL-18BP) (UniProt O95998 31-194)
- T1 sequence (looked up): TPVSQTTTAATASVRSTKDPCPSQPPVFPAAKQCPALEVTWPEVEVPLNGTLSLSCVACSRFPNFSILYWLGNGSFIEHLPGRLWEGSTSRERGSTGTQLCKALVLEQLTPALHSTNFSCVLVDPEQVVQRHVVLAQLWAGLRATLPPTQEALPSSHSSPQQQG
- assayNotes: cell-based or functional assay
Output spec: single numeric token, no unit.

[in] Record request: Ratio (-BP/+BP), DF-1,000,000 value, item IL-18 variant K53D, S55L (ligand) YFGKLESKLSVIRNLNDQVLFIDQGNRPLFEDMTDSDMRDNAPRTIFIISMYDDLQPRGMAVTISVKSEKISTLSSENKIISFKEMNPPDNIKDTKSDIIFFQRSVPGHDNKMQFESSSYEGYFLASEKERDLFKLILKKEDELGDRSIMFTVQNED
[out] 1.01

[in] Next record, please: IL-18 variant L9V, K53H, S55M (ligand) YFGKLESKVSVIRNLNDQVLFIDQGNRPLFEDMTDSDMRDNAPRTIFIISMYHDMQPRGMAVTISVKSEKISTLSSENKIISFKEMNPPDNIKDTKSDIIFFQRSVPGHDNKMQFESSSYEGYFLASEKERDLFKLILKKEDELGDRSIMFTVQNED
[out] 0.78

[in] Param item: IL-18 variant K53N, S55A, R104N, P107A, H109Y (ligand) YFGKLESKLSVIRNLNDQVLFIDQGNRPLFEDMTDSDMRDNAPRTIFIISMYNDAQPRGMAVTISVKSEKISTLSSENKIISFKEMNPPDNIKDTKSDIIFFQNSVAGYDNKMQFESSSYEGYFLASEKERDLFKLILKKEDELGDRSIMFTVQNED
[out] 0.93

[in] // repeat for IL-18 variant K53H, S55H (ligand) YFGKLESKLSVIRNLNDQVLFIDQGNRPLFEDMTDSDMRDNAPRTIFIISMYHDHQPRGMAVTISVKSEKISTLSSENKIISFKEMNPPDNIKDTKSDIIFFQRSVPGHDNKMQFESSSYEGYFLASEKERDLFKLILKKEDELGDRSIMFTVQNED and report
[out] 0.96

[in] Another: IL-18 variant K53H, S55H, N87D, H109I (ligand) YFGKLESKLSVIRNLNDQVLFIDQGNRPLFEDMTDSDMRDNAPRTIFIISMYHDHQPRGMAVTISVKSEKISTLSSENKIISFKEMDPPDNIKDTKSDIIFFQRSVPGIDNKMQFESSSYEGYFLASEKERDLFKLILKKEDELGDRSIMFTVQNED
[out] 0.88

[in] Same thing, different binder: IL-18 variant L15I, K53H, S55M (ligand) YFGKLESKLSVIRNINDQVLFIDQGNRPLFEDMTDSDMRDNAPRTIFIISMYHDMQPRGMAVTISVKSEKISTLSSENKIISFKEMNPPDNIKDTKSDIIFFQRSVPGHDNKMQFESSSYEGYFLASEKERDLFKLILKKEDELGDRSIMFTVQNED
[out] 1.02

[in] Queued: IL-18 variant S36E, D37E, D40V, N41S, K53Y, S55V, H109Y (ligand) YFGKLESKLSVIRNLNDQVLFIDQGNRPLFEDMTDEEMRVSAPRTIFIISMYYDVQPRGMAVTISVKSEKISTLSSENKIISFKEMNPPDNIKDTKSDIIFFQRSVPGYDNKMQFESSSYEGYFLASEKERDLFKLILKKEDELGDRSIMFTVQNED
[out] 0.89
